- study-system: T1, EphA2 SAM domain K945L (human, UniProt P29317 897-976, K945L)
- T1 sequence (looked up): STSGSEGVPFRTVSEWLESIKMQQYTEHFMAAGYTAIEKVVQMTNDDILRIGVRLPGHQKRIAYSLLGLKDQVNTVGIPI
- test: ITC
metric-name: Kd

I have this binder here, SHIP2 SAM domain (wild type) (domain or fragment, human, UniProt O15357 1192-1258, looked up) RASGLGEAGMSAWLRAIGLERYEEGLVHNGWDDLEFLSDITEEDLEEAGVQDPAHKRLLLDTLQLSK , and I need its recorded Kd.
1.3 µM

Measured values drawn from paper PMC3516615 for this set.
